Attribution: ChEMBL document CHEMBL4732083

- assay.info: Metabolic stability in mouse liver microsomes assessed as intrinsic clearance in presence of NADPH by LC-MS analysis
- Type: ADME, Microsome
- condition.context: read-out: CLH
Overview of recorded CLint scaled for various molecules
Your answer should be a plain number; it is taken to be in mL/min/kg.

O=C(c1ccc(F)cc1)C1CCN(CCn2c(=O)[nH]c3ccccc3c2=O)CC1    283

Now consider the entry below.
INPUT: Consider the molecule CC1(C)CC[C@]2(C(=O)O)CC[C@]3(C)C(=C2C1)CC[C@@H]1[C@@]2(C)CC[C@H](O[C@@H]4OC[C@H](O)[C@H](O)[C@H]4O[C@@H]4OC[C@@H](O)[C@H](O)[C@H]4O)C(C)(C)[C@@H]2CC[C@]13C and give its recorded CLint scaled.
OUTPUT: 2.34

---

- assay.info: AUC (0 to t) in BALB/c mouse at 10 mg/kg, po by LC/MS-MS analysis
- Format: ADME, organism-based
- Set-up: dose 10 mg/kg
- condition.context: in vivo
reported.metric: AUC(0-t) (ng·h/mL)
Your answer should be a plain number; it is taken to be in ng·h/mL.

Worked cases, AUC(0-t) given:
CC1(C)CC[C@]2(C(=O)O[C@@H]3OC[C@@H](O)[C@H](O)[C@H]3O)CC[C@]3(C)C(=C2C1)CC[C@@H]1[C@@]2(C)CC[C@H](O[C@@H]4OC[C@H](O)[C@H](O)[C@H]4O)C(C)(C)[C@@H]2CC[C@]13C    3000
CC1(C)CC[C@]2(C(=O)O)CC[C@]3(C)C(=C2C1)CC[C@@H]1[C@@]2(C)CC[C@H](O[C@@H]4OC[C@H](O)[C@H](O)[C@H]4O)C(C)(C)[C@@H]2CC[C@]13C    1670

Now consider the entry below.
INPUT: Consider the molecule CC1(C)CC[C@]2(C(=O)O)CC[C@]3(C)C(=C2C1)CC[C@@H]1[C@@]2(C)CC[C@H](O[C@@H]4OC[C@H](O)[C@H](O)[C@H]4O[C@@H]4OC[C@@H](O)[C@H](O)[C@H]4O)C(C)(C)[C@@H]2CC[C@]13C and give its recorded AUC(0-t).
OUTPUT: 145

---

Overview of recorded half-life for various compounds
- assay.info: Half life in BALB/c mouse at 2 mg/kg, iv by LC/MS-MS analysis
- Format: ADME, organism-based
- condition.context: in vivo
Your answer should be a plain number; it is taken to be in h.

Worked cases, half-life given:
CC1(C)CC[C@]2(C(=O)O)CC[C@]3(C)C(=C2C1)CC[C@@H]1[C@@]2(C)CC[C@H](O[C@@H]4OC[C@H](O)[C@H](O)[C@H]4O)C(C)(C)[C@@H]2CC[C@]13C    0.35
CC1(C)CC[C@]2(C(=O)O[C@@H]3OC[C@@H](O)[C@H](O)[C@H]3O)CC[C@]3(C)C(=C2C1)CC[C@@H]1[C@@]2(C)CC[C@H](O[C@@H]4OC[C@H](O)[C@H](O)[C@H]4O)C(C)(C)[C@@H]2CC[C@]13C    1.74

INPUT: Consider the compound CC1(C)CC[C@]2(C(=O)O)CC[C@]3(C)C(=C2C1)CC[C@@H]1[C@@]2(C)CC[C@H](O[C@@H]4OC[C@H](O)[C@H](O)[C@H]4O[C@@H]4OC[C@@H](O)[C@H](O)[C@H]4O)C(C)(C)[C@@H]2CC[C@]13C and give its recorded half-life.
OUTPUT: 2.25

---

Overview of recorded half-life for various molecules
- assay.info: Metabolic stability in mouse liver microsomes assessed as half life in presence of NADPH by LC-MS analysis
- Type: ADME, Microsome

O=C(c1ccc(F)cc1)C1CCN(CCn2c(=O)[nH]c3ccccc3c2=O)CC1 [KETANSERIN]    0.322 h
CC1(C)CC[C@]2(C(=O)O)CC[C@]3(C)C(=C2C1)CC[C@@H]1[C@@]2(C)CC[C@H](O[C@@H]4OC[C@H](O)[C@H](O)[C@H]4O)C(C)(C)[C@@H]2CC[C@]13C    > 2 h
CC1(C)CC[C@]2(C(=O)O)CC[C@]3(C)C(=C2C1)CC[C@@H]1[C@@]2(C)CC[C@H](O[C@@H]4OC[C@H](O)[C@H](O)[C@H]4O[C@@H]4OC[C@@H](O)[C@H](O)[C@H]4O)C(C)(C)[C@@H]2CC[C@]13C    > 2 h

Now consider the entry below.
INPUT: Consider the molecule CC1(C)CC[C@]2(C(=O)O[C@@H]3OC[C@@H](O)[C@H](O)[C@H]3O)CC[C@]3(C)C(=C2C1)CC[C@@H]1[C@@]2(C)CC[C@H](O[C@@H]4OC[C@H](O)[C@H](O)[C@H]4O)C(C)(C)[C@@H]2CC[C@]13C and give its recorded half-life.
OUTPUT: > 2 h

---

- assay.info: Cmax in BALB/c mouse at 2 mg/kg, iv by LC/MS-MS analysis
- Format: ADME, organism-based
- Set-up: route intravenous, dose 2 mg/kg
- condition.context: in vivo
reported.metric: Cmax (ng/mL)
Your answer should be a plain number; it is taken to be in ng/mL.

Worked cases, Cmax given:
CC1(C)CC[C@]2(C(=O)O)CC[C@]3(C)C(=C2C1)CC[C@@H]1[C@@]2(C)CC[C@H](O[C@@H]4OC[C@H](O)[C@H](O)[C@H]4O[C@@H]4OC[C@@H](O)[C@H](O)[C@H]4O)C(C)(C)[C@@H]2CC[C@]13C    8820
CC1(C)CC[C@]2(C(=O)O[C@@H]3OC[C@@H](O)[C@H](O)[C@H]3O)CC[C@]3(C)C(=C2C1)CC[C@@H]1[C@@]2(C)CC[C@H](O[C@@H]4OC[C@H](O)[C@H](O)[C@H]4O)C(C)(C)[C@@H]2CC[C@]13C    3500

Now consider the entry below.
INPUT: Consider the compound CC1(C)CC[C@]2(C(=O)O)CC[C@]3(C)C(=C2C1)CC[C@@H]1[C@@]2(C)CC[C@H](O[C@@H]4OC[C@H](O)[C@H](O)[C@H]4O)C(C)(C)[C@@H]2CC[C@]13C and give its recorded Cmax.
OUTPUT: 4410
